molecular target: mTGR5 (Mus musculus, UniProt Q80SS6); construct: expressed in transfected cells; host or cells: HEK293 cells, transiently co-transfected with the pCRE TA-Luciferase reporter; assay: TGR5/CRE Luciferase Assay (mTGR5); type: cell-based; details: percentage of the 10 μM LCA value; HEK 293 cells transfected with mTGR5
reported-property: mTGR5 % trans (%)
Number in %, nothing else.

[[record]]
compound = "COc1ccccc1COC(=O)C1=C(C)N(C[C@H]2CCCO2)C(=O)C[C@H]1c1ccc2nsnc2c1 (racemic)"
assay_result = 66

[[record]]
compound = "O=C(OCc1ccccc1)C1=CN(CC2CC2)C(=O)CC1c1ccc(Cl)cc1 (stereo not shown)"
assay_result = 37

[[record]]
compound = "COCCN1C(=O)CC(c2ccc(Cl)cc2)C(C(=O)OCc2ccc(C)cc2)=C1C (stereo not shown)"
assay_result = 89


// recorded mTGR5 % trans for `COc1ccccc1COC(=O)C1=C(C)N(C[C@@H]2CCCO2)C(=O)C[C@H]1c1ccc(Cl)nc1` : 102

---

molecular target: hTGR5 (Homo sapiens); experiment: TGR5/CRE Luciferase Assay (hTGR5); conditions: HEK 293 cells co-transfected with pCMV tag4b-TGR5h and pCRE TA-Luciferase; overnight incubation
Sequence (Q8TDU6 whole entry): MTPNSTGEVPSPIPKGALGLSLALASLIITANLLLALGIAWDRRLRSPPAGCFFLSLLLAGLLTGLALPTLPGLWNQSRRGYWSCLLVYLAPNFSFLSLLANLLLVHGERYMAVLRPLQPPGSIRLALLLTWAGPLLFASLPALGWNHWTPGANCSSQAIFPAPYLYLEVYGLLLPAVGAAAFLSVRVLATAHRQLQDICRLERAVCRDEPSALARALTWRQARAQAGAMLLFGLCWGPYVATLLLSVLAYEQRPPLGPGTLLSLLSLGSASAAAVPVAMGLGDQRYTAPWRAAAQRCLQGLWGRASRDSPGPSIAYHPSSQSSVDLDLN
pEC50 listing for selected compounds.
To interpret pEC50, take it as minus log10 of a concentration measured in moles per litre.

[[record]]
compound = "COCCN1C(=O)CC(c2ccc(Cl)cc2)C(C(=O)OCc2ccc(C#N)cc2)=C1C (stereo not drawn)"
assay_result = 6.70


// recorded pEC50 for COCCN1C(=O)CC(c2ccc(Cl)cc2)C(C(=O)OCCCc2ccccc2)=C1C (stereo not drawn) : 5.96

// recorded pEC50 for COCCN1C(=O)CC(c2ccc(Cl)cc2)C(C(=O)OCc2c(C)cc(C)cc2C)=C1C (stereo not drawn) : 6.70

// recorded pEC50 for COCCN1C(=O)CC(c2ccc(Cl)cc2)C(C(=O)OCc2ccccc2C#N)=C1C (stereo not drawn) : 6.22

// recorded pEC50 for CCOC(=O)C1=C(c2ccccc2)N(C)C(=O)CC1c1ccc(Cl)cc1 (stereo not drawn) : 5.52

// recorded pEC50 for COCCN1C(=O)CC(c2ccc(Cl)cc2)C(C(=O)OCc2ccccc2C(F)(F)F)=C1C (stereo not drawn) : 5.96

---

biological target: mTGR5 (Mus musculus); experiment: TGR5/CRE Luciferase Assay (mTGR5); details: HEK 293 cells co-transfected with pCMV AC6-TGR5m and pCRE TA-Luciferase; overnight incubation
EC50 listing for selected molecules.
Number in nM, nothing else.

Example entries begin here.
[[record]]
molecule = "COCCN1C(=O)CC(c2ccc(Cl)cc2)C(C(=O)OCc2ccccc2OC(F)(F)F)=C1C (stereo not shown)"
reported_property = "EC50"
assay_result = 800

[[record]]
molecule = "CC1=C(C(=O)OC2CCc3ccccc32)[C@H](c2ccc(Cl)cc2)CC(=O)N1C[C@H]1CCCO1 (mixture of isomers)"
reported_property = "EC50"
assay_result = 930

[[record]]
molecule = "CCN1C(=O)CC(c2ccc(Cl)cc2)C(C(=O)OCc2ccccc2)=C1C (stereo not shown)"
reported_property = "EC50"
assay_result = 800


// recorded EC50 for CC1=C(C(=O)OCc2ccccc2)C(c2ccc(Cl)cc2)CC(=O)N1C (stereo not shown) : 1400

---

target: mTGR5 (Mus musculus, UniProt Q80SS6); assay: TGR5/CRE Luciferase Assay (mTGR5); conditions: HEK 293 cells co-transfected with pCMV AC6-TGR5m and pCRE TA-Luciferase; overnight incubation
Classify: yes when EC50 is strictly less than 0.7 µM; no when EC50 is not.

Here are 3 molecules together with their reported answers.
[[record]]
molecule = "C=CCN1C(=O)CC(c2ccc(Cl)cc2)C(C(=O)OCc2ccccc2)=C1C (stereo not shown) [Compound 38]"
test_target = "mTGR5 (Mus musculus, UniProt Q80SS6)"
cat = "no"

[[record]]
molecule = "CC1=C(C(=O)OCc2ccccc2)C(c2ccc(C)cc2)CC(=O)N1 (stereo not shown) [Compound 3]"
test_target = "mTGR5 (Mus musculus, UniProt Q80SS6)"
cat = "no"

[[record]]
molecule = "O=C1CC(c2ccc(Cl)cc2)C(C(=O)NCc2ccccc2)=CN1 (stereo not shown) [Compound 25]"
test_target = "mTGR5 (Mus musculus, UniProt Q80SS6)"
cat = "yes"


Challenge: Lab note: EC50 threshold 0.7 µM. Does this molecule come in strictly under it? CC1=C(C(=O)OCc2ccccc2)C(c2ccc(Cl)cc2)CC(=O)N1Cc1ccccc1 (stereo not shown) [Compound 41]
Response given: no

Challenge: Lab note: EC50 threshold 0.7 µM. Does this molecule come in strictly under it? COCCN1C(=O)CC(c2ccc(Cl)cc2)C(C(=O)OCCc2ccccc2)=C1C (stereo not shown) [Example 110]
Response given: no

Challenge: Lab note: EC50 threshold 0.7 µM. Does this molecule come in strictly under it? COc1ccccc1COC(=O)C1=C(C)N(CC2OCCO2)C(=O)CC1c1ccc(Cl)cc1 (stereo not shown) [Compound 72]
Response given: yes

---

Target: mTGR5 (Mus musculus, UniProt Q80SS6)
Construct: expressed in transfected cells; host or cells: HEK293 cells, transiently co-transfected with the pCRE TA-Luciferase reporter
Sequence (Q80SS6 1-329): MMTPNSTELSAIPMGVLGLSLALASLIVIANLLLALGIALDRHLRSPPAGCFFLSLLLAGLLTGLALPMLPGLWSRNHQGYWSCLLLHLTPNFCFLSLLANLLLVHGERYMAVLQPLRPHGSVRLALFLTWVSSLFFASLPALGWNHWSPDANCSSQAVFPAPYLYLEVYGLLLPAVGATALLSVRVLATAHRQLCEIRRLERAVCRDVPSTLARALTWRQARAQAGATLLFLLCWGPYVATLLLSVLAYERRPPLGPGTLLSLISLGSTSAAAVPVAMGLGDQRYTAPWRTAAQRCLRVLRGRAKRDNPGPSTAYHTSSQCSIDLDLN
Assay: TGR5/CRE Luciferase Assay (mTGR5)
Format: cell-based
Conditions: percentage of the 10 μM LCA value; HEK 293 cells transfected with mTGR5
Protocol: TGR5/CRE Luciferase Assay In the following Tables TGR5 activation by compounds of the invention and subsequent increase in intracellular cAMP were evaluated using a luciferase reporter gene assay. […] Luminescence was read with a Mithras plate reader (Berthold) or a Victor3™ V1420 (Perkin Elmer). […]
reported-property: mTGR5 % trans (%)
Number in %, nothing else.

Example entries begin here.
[[record]]
molecule = "COCCOc1ccc(COC(=O)C2=C(C)N(CCOC)C(=O)CC2c2ccc(Cl)cc2)cc1 (stereo not shown)"
reported_property = "mTGR5 % trans"
units = "%"
assay_result = 83

[[record]]
molecule = "COCCN1C(=O)CC(c2ccc(Cl)cc2)C(C(=O)OCc2cccc(C(=O)OC)c2)=C1C (stereo not shown)"
reported_property = "mTGR5 % trans"
units = "%"
assay_result = 83

[[record]]
molecule = "CC1=C(C(=O)OCc2ccccc2)C(c2ccc(Cl)cc2)CC(=O)N1CCN(C)C (stereo not shown)"
reported_property = "mTGR5 % trans"
units = "%"
assay_result = 77


Response field mTGR5 % trans (mTGR5 (Mus musculus, UniProt Q80SS6)) for item CN1C=C(C(=O)NCc2ccccc2)C(c2ccc(Cl)cc2)CC1=O (stereo not shown) : 20

Response field mTGR5 % trans (mTGR5 (Mus musculus, UniProt Q80SS6)) for item CC1=C(C(=O)OCc2ccccc2)C(c2ccc(Cl)cc2)CC(=O)N1CC#N (stereo not shown) : 57

---

Molecular target: mTGR5 (Mus musculus)
Construct: expressed in transfected cells; host or cells: HEK293 cells, transiently co-transfected with the pCRE TA-Luciferase reporter
Sequence (Q80SS6 1-329): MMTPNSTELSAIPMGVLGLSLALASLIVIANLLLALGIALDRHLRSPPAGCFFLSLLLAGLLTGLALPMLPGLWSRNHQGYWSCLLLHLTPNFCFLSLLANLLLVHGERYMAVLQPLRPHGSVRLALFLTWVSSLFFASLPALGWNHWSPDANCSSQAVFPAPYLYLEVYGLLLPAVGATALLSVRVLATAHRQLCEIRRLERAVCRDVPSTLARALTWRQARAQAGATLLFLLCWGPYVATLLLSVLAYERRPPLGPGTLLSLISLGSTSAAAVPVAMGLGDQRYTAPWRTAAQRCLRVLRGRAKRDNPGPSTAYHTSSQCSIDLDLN
Assay: TGR5/CRE Luciferase Assay (mTGR5)
Format: cell-based
Details: percentage of the 10 μM LCA value; HEK 293 cells transfected with mTGR5
reported-property: mTGR5 % trans (%)
Number in %, nothing else.

// recorded mTGR5 % trans for COCCN1C(=O)CC(c2ccc(Cl)cc2)C(C(=O)OCc2ccc(F)cc2)=C1C (stereo not shown) : 82

// recorded mTGR5 % trans for COc1ccccc1COC(=O)C1=C(C)N(CC2OCCO2)C(=O)CC1c1ccc(Cl)cc1 (stereo not shown) : 92

// recorded mTGR5 % trans for CC1=C(C(=O)OCc2ccccc2)C(c2cccc(Cl)c2)CC(=O)N1 (stereo not shown) : 10

// recorded mTGR5 % trans for CN1C=C(C(=O)N(C)Cc2ccccc2)C(c2ccc(Cl)cc2)CC1=O (stereo not shown) [Compound 33a] : 16
